# Test system: Escherichia coli TOP10
# experiment-notes: shrunken log2 fold change of peptide-encoding DNA abundance (4.5 h post-induction vs induction); higher = less antimicrobial activity (less host growth inhibition)
# setup-conditions: time post-induction: 4.5 h; library: site-saturation at positions 5, 18, 19, 20
quantity-name: shrunken log2 fold change
One number for each entry.

Worked set:
Query string: Query: shrunken log2 fold change; subject: "RRIRERPPRLPRPRPRPKMQPRP"
Result string: -0.0537

Query string: Query: shrunken log2 fold change; subject: "RRIRIRPPRLPRPRPRPWTIPRP"
Result string: -0.0831

Query string: Query: shrunken log2 fold change; subject: "RRIRIRPPRLPRPRPRPCTEPRP"
Result string: -0.0706

Query string: Query: shrunken log2 fold change; subject: "RRIRMRPPRLPRPRPRPQVEPRP"
Result string: -0.00107

Query string: Query: shrunken log2 fold change; subject: "RRIRARPPRLPRPRPRPGQMPRP"
Result string: 0.0151

Hi team, please reply with shrunken log2 fold change for each item in this list.
1. RRIRCRPPRLPRPRPRPMFDPRP
2. RRIRVRPPRLPRPRPRPGKAPRP
3. RRIRIRPPRLPRPRPRPLGLPRP

Result string:
[-0.246, -0.00584, -0.177]

---

# System: Escherichia coli TOP10
# experiment-notes: shrunken log2 fold change of peptide-encoding DNA abundance (4.5 h post-induction vs induction); higher = less antimicrobial activity (less host growth inhibition)
# setup-conditions: time post-induction: 4.5 h; library: site-saturation at positions 5, 18, 19, 20
Field: shrunken log2 fold change. Provide a value for each of the sequences that follow.
One number for each entry.

Worked set:
Query string: Query: shrunken log2 fold change; subject: "RRIRLRPPRLPRPRPRPVVGPRP"
Result string: 0.103

Query string: Query: shrunken log2 fold change; subject: "RRIRLRPPRLPRPRPRPYKDPRP"
Result string: -0.269

Query string: Query: shrunken log2 fold change; subject: "RRIRRRPPRLPRPRPRPNDRPRP"
Result string: 0.205

Query string: Query: shrunken log2 fold change; subject: "RRIRNRPPRLPRPRPRPHGLPRP"
Result string: -0.257

Query string: Query: shrunken log2 fold change; subject: "RRIRSRPPRLPRPRPRPCVWPRP"
Result string: 0.8

Query string: Query: shrunken log2 fold change; subject: "RRIRYRPPRLPRPRPRPATLPRP"
Result string: -0.307

Query string: Query: shrunken log2 fold change; subject: "RRIRIRPPRLPRPRPRPIKDPRP"
Result string: -0.467

Query string: Query: shrunken log2 fold change; subject: "RRIRDRPPRLPRPRPRPETYPRP"
Result string: 0.217

Hi team, please reply with shrunken log2 fold change for each item in this list.
1. RRIRIRPPRLPRPRPRPFMVPRP
2. RRIRYRPPRLPRPRPRPRFAPRP
3. RRIRTRPPRLPRPRPRPWLLPRP
4. RRIRGRPPRLPRPRPRPHAAPRP

Result string:
-0.975
-0.152
-0.186
1.47

Hi team, please reply with shrunken log2 fold change for each item in this list.
1. RRIRGRPPRLPRPRPRPDWNPRP
2. RRIRGRPPRLPRPRPRPCAHPRP
3. RRIRPRPPRLPRPRPRPHMCPRP

Result string:
[0.361, 0.251, -0.082]

---

# Test system: Escherichia coli TOP10
# experiment-notes: shrunken log2 fold change of peptide-encoding DNA abundance (4.5 h post-induction vs induction); higher = less antimicrobial activity (less host growth inhibition)
# setup-conditions: time post-induction: 4.5 h; library: site-saturation at positions 5, 18, 19, 20
quantity-name: shrunken log2 fold change
One number for each entry.

Query string: Query: shrunken log2 fold change; subject: "RRIRYRPPRLPRPRPRPHHKPRP"
Result string: -0.319

Query string: Query: shrunken log2 fold change; subject: "RRIRHRPPRLPRPRPRPAQSPRP"
Result string: -0.0382

Query string: Query: shrunken log2 fold change; subject: "RRIRFRPPRLPRPRPRPSYDPRP"
Result string: -0.0248

Query string: Query: shrunken log2 fold change; subject: "RRIRSRPPRLPRPRPRPCRWPRP"
Result string: 0.0467

Query string: Query: shrunken log2 fold change; subject: "RRIRIRPPRLPRPRPRPRKMPRP"
Result string: 0.142

Hi team, please reply with shrunken log2 fold change for each item in this list.
1. RRIRHRPPRLPRPRPRPSAEPRP
2. RRIRDRPPRLPRPRPRPPINPRP
3. RRIRVRPPRLPRPRPRPMRYPRP
4. RRIRVRPPRLPRPRPRPKYIPRP
5. RRIRMRPPRLPRPRPRPTEVPRP
6. RRIRYRPPRLPRPRPRPMEDPRP
7. RRIRDRPPRLPRPRPRPHIGPRP

Result string:
[0.217, -0.205, 0.453, -0.821, 0.598, -0.0944, -0.0522]

Hi team, please reply with shrunken log2 fold change for each item in this list.
1. RRIRYRPPRLPRPRPRPDAKPRP
2. RRIRYRPPRLPRPRPRPPMGPRP
3. RRIRLRPPRLPRPRPRPDEPPRP
4. RRIRCRPPRLPRPRPRPFGIPRP
5. RRIRMRPPRLPRPRPRPNHYPRP

Result string:
[-0.118, -0.239, -0.0538, -0.129, -0.352]

---

# Tested on: Escherichia coli TOP10
# experiment-notes: shrunken log2 fold change of peptide-encoding DNA abundance (4.5 h post-induction vs induction); higher = less antimicrobial activity (less host growth inhibition)
# setup-conditions: time post-induction: 4.5 h; library: site-saturation at positions 5, 18, 19, 20
quantity-name: shrunken log2 fold change
One number for each entry.

Worked set:
Query string: Query: shrunken log2 fold change; subject: "RRIRPRPPRLPRPRPRPCHTPRP"
Result string: -0.498

Query string: Query: shrunken log2 fold change; subject: "RRIRYRPPRLPRPRPRPTTFPRP"
Result string: -0.645

Query string: Query: shrunken log2 fold change; subject: "RRIRGRPPRLPRPRPRPGPKPRP"
Result string: 0.808

Query string: Query: shrunken log2 fold change; subject: "RRIRSRPPRLPRPRPRPSVVPRP"
Result string: -0.219

Hi team, please reply with shrunken log2 fold change for each item in this list.
1. RRIRVRPPRLPRPRPRPHCEPRP
2. RRIRWRPPRLPRPRPRPHNPPRP
3. RRIRQRPPRLPRPRPRPSECPRP
4. RRIRQRPPRLPRPRPRPGHAPRP
5. RRIRQRPPRLPRPRPRPWQDPRP
6. RRIRIRPPRLPRPRPRPMCSPRP
7. RRIRIRPPRLPRPRPRPVASPRP
8. RRIRFRPPRLPRPRPRPCYIPRP

Result string:
-0.0141
-0.115
-0.0674
0.116
0.07
-0.119
-0.14
-0.158

Hi team, please reply with shrunken log2 fold change for each item in this list.
1. RRIRCRPPRLPRPRPRPNGHPRP
2. RRIRIRPPRLPRPRPRPCSHPRP
3. RRIRVRPPRLPRPRPRPVYWPRP
4. RRIRPRPPRLPRPRPRPADLPRP

Result string:
1: -0.023; 2: 0.0454; 3: 0.0159; 4: 0.0166

Hi team, please reply with shrunken log2 fold change for each item in this list.
1. RRIRDRPPRLPRPRPRPCVVPRP
2. RRIRGRPPRLPRPRPRPLGKPRP
3. RRIRHRPPRLPRPRPRPGGRPRP
4. RRIRVRPPRLPRPRPRPMKCPRP
5. RRIRERPPRLPRPRPRPNICPRP
6. RRIRFRPPRLPRPRPRPVLRPRP
7. RRIRPRPPRLPRPRPRPVIIPRP
8. RRIRYRPPRLPRPRPRPCITPRP

Result string:
-0.00921
0.362
0.0167
-0.00104
-0.523
0.113
-0.286
-0.00269

Hi team, please reply with shrunken log2 fold change for each item in this list.
1. RRIRQRPPRLPRPRPRPYFTPRP
2. RRIRVRPPRLPRPRPRPMVGPRP

Result string:
-0.818
0.0148

Hi team, please reply with shrunken log2 fold change for each item in this list.
1. RRIRSRPPRLPRPRPRPWTLPRP
2. RRIRVRPPRLPRPRPRPGDGPRP
3. RRIRIRPPRLPRPRPRPLDVPRP
4. RRIRTRPPRLPRPRPRPCPFPRP
5. RRIRARPPRLPRPRPRPCKFPRP
6. RRIRWRPPRLPRPRPRPNTCPRP

Result string:
1. -0.0934
2. 0.532
3. -0.0639
4. -0.484
5. -0.138
6. -0.777

---

# System: Escherichia coli TOP10;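 note: peptides expressed intracellularly from a pBAD plasmid library in pooled LB shake-flask culture, induced with 0.3% L-arabinose, DNA abundance read by NGS, three biological replicates, DESeq2 with apeglm shrinkage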
# experiment-notes: shrunken log2 fold change of peptide-encoding DNA abundance (4.5 h post-induction vs induction); higher = less antimicrobial activity (less host growth inhibition)
# setup-conditions: time post-induction: 4.5 h; library: site-saturation at positions 5, 18, 19, 20
Think of -0.04 as a floor: if shrunken log2 fold change stands on it or above, it is fulfilled; beneath it, not fulfilled.

Reference set (5 entries):
Query string: State whether the measured shrunken log2 fold change reaches -0.04, counting equality as reaching it, for "RRIRIRPPRLPRPRPRPTYKPRP"
Result string: not fulfilled

Query string: State whether the measured shrunken log2 fold change reaches -0.04, counting equality as reaching it, for "RRIRGRPPRLPRPRPRPGWWPRP"
Result string: fulfilled

Query string: State whether the measured shrunken log2 fold change reaches -0.04, counting equality as reaching it, for "RRIRLRPPRLPRPRPRPCSCPRP"
Result string: fulfilled

Query string: State whether the measured shrunken log2 fold change reaches -0.04, counting equality as reaching it, for "RRIRIRPPRLPRPRPRPDVWPRP"
Result string: not fulfilled

Query string: State whether the measured shrunken log2 fold change reaches -0.04, counting equality as reaching it, for "RRIRGRPPRLPRPRPRPGPFPRP"
Result string: fulfilled

***
Query string: State whether the measured shrunken log2 fold change reaches -0.04, counting equality as reaching it, for "RRIRNRPPRLPRPRPRPHMMPRP"
Result string: not fulfilled

Query string: State whether the measured shrunken log2 fold change reaches -0.04, counting equality as reaching it, for "RRIRHRPPRLPRPRPRPGKVPRP"
Result string: fulfilled

Query string: State whether the measured shrunken log2 fold change reaches -0.04, counting equality as reaching it, for "RRIRFRPPRLPRPRPRPGSPPRP"
Result string: fulfilled

Query string: State whether the measured shrunken log2 fold change reaches -0.04, counting equality as reaching it, for "RRIRLRPPRLPRPRPRPNEDPRP"
Result string: not fulfilled

Query string: State whether the measured shrunken log2 fold change reaches -0.04, counting equality as reaching it, for "RRIRNRPPRLPRPRPRPSGWPRP"
Result string: not fulfilled

Query string: State whether the measured shrunken log2 fold change reaches -0.04, counting equality as reaching it, for "RRIRIRPPRLPRPRPRPYKYPRP"
Result string: not fulfilled

Cited source: the supplement of paper PMC9112550
